# Tgt: T1, recombinant human IL-23 (hrIL-23), produced at Centocor (human, UniProt P29460 23-328)
# T1 construct: p19-p40 heterodimer; also called rhIL-23; huIL-23
# T1 sequence 1: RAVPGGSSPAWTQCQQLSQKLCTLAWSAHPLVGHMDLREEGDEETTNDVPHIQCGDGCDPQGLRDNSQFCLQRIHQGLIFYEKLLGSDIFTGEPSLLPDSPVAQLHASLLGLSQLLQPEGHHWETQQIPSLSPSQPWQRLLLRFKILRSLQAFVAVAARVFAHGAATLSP
# T1 sequence 2: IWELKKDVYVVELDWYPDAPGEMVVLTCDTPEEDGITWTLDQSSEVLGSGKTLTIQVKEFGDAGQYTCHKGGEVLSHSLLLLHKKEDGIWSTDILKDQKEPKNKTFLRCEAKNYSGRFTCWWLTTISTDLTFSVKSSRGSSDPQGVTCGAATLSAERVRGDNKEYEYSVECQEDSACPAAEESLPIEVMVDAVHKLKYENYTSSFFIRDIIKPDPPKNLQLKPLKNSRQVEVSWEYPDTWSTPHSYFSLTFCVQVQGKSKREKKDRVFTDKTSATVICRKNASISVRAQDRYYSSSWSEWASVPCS
# Assay Remarks: IL-23/IL-23R competition assay
Reported Metric: pIC50
Recall that pIC50 is obtained by taking minus log10 of the concentration measured in molar.

Please review the entries below; each comes with its answer.
MOR05047 Fab (Fab, V domains shown, Fab) VH: QVQLVESGGGLVQPGGSLRLSCAASGFTFSSFGMSWVRQAPGKGLEWVSNIEHKYLGYATSYAASVKGRFTISRDNSKNTLYLQMNSLRAEDTAVYYCARYWGTPYLMQFDNWGQGTLVTVSS VL: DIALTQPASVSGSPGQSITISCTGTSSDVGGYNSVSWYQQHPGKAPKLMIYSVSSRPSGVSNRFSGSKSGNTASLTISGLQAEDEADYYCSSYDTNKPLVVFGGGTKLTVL    9.89
MOR05052 Fab (Fab, V domains shown, Fab) VH: QVQLVESGGGLVQPGGSLRLSCAASGFTFSSFGMSWVRQAPGKGLEWVSSIEHKYLSYTTFYAASVKGRFTISRDNSKNTLYLQMNSLRAEDTAVYYCARYWGTPYLMQFDNWGQGTLVTVSS VL: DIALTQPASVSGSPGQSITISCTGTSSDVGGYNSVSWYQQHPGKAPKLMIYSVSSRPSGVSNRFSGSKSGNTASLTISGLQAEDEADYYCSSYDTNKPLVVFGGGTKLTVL    9.24
MOR04658 Fab (Fab, V domains shown, Fab) VH: QVQLVESGGGLVQPGGSLRLSCAASGFTFSSFGMSWVRQAPGKGLEWVSNISSSGSSTYYADSVKGRFTISRDNSKNTLYLQMNSLRAEDTAVYYCARYWGTPYLMQFDNWGQGTLVTVSS VL: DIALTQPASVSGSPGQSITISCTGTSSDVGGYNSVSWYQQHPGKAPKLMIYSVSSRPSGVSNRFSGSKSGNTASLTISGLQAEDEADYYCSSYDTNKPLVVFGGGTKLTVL    7.85
MOR05060 Fab (Fab, V domains shown, Fab) VH: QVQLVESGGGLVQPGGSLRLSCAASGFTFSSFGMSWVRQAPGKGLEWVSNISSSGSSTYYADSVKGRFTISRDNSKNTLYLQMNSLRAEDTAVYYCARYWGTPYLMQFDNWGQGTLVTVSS VL: DIALTQPASVSGSPGQSITISCTGTSSDVGGYNSVSWYQQHPGKAPKLMIYSVSSRPSGVSNRFSGSKSGNTASLTISGLQAEDEADYYCGSYDVYGRFYVFGGGTKLTVL    9.00

Let us move to another entry and its pIC50.
Exam item: Reported pIC50 for MOR05048 Fab (Fab, V domains shown, Fab) VH: QVQLVESGGGLVQPGGSLRLSCAASGFTFSSFGMSWVRQAPGKGLEWVSNIEHKFMGYTTYYAAGVKGRFTISRDNSKNTLYLQMNSLRAEDTAVYYCARYWGTPYLMQFDNWGQGTLVTVSS VL: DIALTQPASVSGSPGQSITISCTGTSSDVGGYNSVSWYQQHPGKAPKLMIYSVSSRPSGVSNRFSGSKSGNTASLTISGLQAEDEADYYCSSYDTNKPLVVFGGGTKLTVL : what is it?
Marked response: 10.00
